# target_under_test: HEK293 cells with stable expression of the GRIN1 gene and tetracycline-inducible expression of the GRIN2B gene (NMDA receptor, NR2B) (Homo sapiens)
# assay_name: Fluo-8 Ca2+ flux assay: reversal of Ro 25-6981-mediated suppression of the Ca2+ response to co-agonist (glutamate/glycine)
# Assay type: cell-based
# experimental_setup: reversal of the Ro 25-6981 suppression of the Ca2+ response to co-agonist (glutamate/glycine)
Record form. Attribute: Response Recovered (%). Fill in for each entry.
Numbers only, in %.

// batch mode: one Response Recovered (%) value per listed entry
1. Cc1cc(-c2cn(C3CC3)c3ccn(CC(=O)N4CC(C)(F)C4)c(=O)c23)ccc1F
2. O=C(Cn1ccc2[nH]cc(-c3ccc(F)c(C(F)(F)F)c3)c2c1=O)N1CCCC1
3. O=C(Cn1cnc2c(c(-c3ccc(Cl)c(F)c3)cn2CCO)c1=O)N1CCCC1

120
91
7

// batch mode: one Response Recovered (%) value per listed entry
1. CC1(NC(=O)OC(C)(C)C)CN(C(=O)Cn2ccc3scc(-c4ccc(F)c(C(F)(F)F)c4)c3c2=O)C1
2. O=C(Cn1ccc2scc(-c3ccc(Cl)c(F)c3)c2c1=O)N1CCC(F)C1 (centres unmarked)
3. O=C(Cn1cnc2csc(-c3ccc(Cl)cc3)c2c1=O)NC1CC1
4. O=C(Cn1cnc2cccc(-c3ccc(Cl)cc3)c2c1=O)N1CCCC1
5. O=C(Cn1cnc2onc(-c3ccc(Cl)cc3)c2c1=O)N1CCCC1C(F)(F)F (centres unmarked)
6. O=C(Cn1ccn2ncc(-c3ccc(F)c(C(F)(F)F)c3)c2c1=O)N1CC(F)(F)C1
7. COC1(C)CN(C(=O)Cn2ccc3scc(-c4ccc(F)c(C(F)(F)F)c4)c3c2=O)C1

["−6.4", 49, 0, 1, 2, 51, 22]

###

# target_under_test: HEK293 cells with stable expression of the GRIN1 gene and tetracycline-inducible expression of the GRIN2B gene (NMDA receptor, NR2B) (Homo sapiens)
# assay_name: Fluo-8 Ca2+ flux assay: reversal of Ro 25-6981-mediated suppression of the Ca2+ response to co-agonist (glutamate/glycine)
# Type: cell-based
# experimental_setup: reversal of the Ro 25-6981 suppression of the Ca2+ response to co-agonist (glutamate/glycine)
Record form. Attribute: Response Recovered (%). Fill in for each entry.
Answers are plain numbers, in %.

As a guide, the following entries are already answered.
O=C(Cn1cc(CO)c2scc(-c3ccc(Cl)c(Cl)c3)c2c1=O)N1CCC(F)C1 (stereo not shown): 72
CC1(NC(=O)OC(C)(C)C)CN(C(=O)Cn2ccc3scc(-c4ccc(F)c(Cl)c4)c3c2=O)C1: 4.7
O=C(Cn1ccc2scc(-c3ccc(F)c(Cl)c3)c2c1=O)N1CC2(CCN2)C1 [Example 97, 2,2,2-trifluoroacetate]: 2.8

// switching to the query molecule
Any idea what its Response Recovered (%) is? The molecule is O=C(Cn1cnc2occ(-c3ccc(Cl)cc3)c2c1=O)N1CC(F)(F)C1
8

###

# target_under_test: HEK293 cells with stable expression of the GRIN1 gene and tetracycline-inducible expression of the GRIN2B gene (NMDA receptor, NR2B) (Homo sapiens, UniProt Q13224)
# Sequence (Q13224 27-1484, other chains not shown): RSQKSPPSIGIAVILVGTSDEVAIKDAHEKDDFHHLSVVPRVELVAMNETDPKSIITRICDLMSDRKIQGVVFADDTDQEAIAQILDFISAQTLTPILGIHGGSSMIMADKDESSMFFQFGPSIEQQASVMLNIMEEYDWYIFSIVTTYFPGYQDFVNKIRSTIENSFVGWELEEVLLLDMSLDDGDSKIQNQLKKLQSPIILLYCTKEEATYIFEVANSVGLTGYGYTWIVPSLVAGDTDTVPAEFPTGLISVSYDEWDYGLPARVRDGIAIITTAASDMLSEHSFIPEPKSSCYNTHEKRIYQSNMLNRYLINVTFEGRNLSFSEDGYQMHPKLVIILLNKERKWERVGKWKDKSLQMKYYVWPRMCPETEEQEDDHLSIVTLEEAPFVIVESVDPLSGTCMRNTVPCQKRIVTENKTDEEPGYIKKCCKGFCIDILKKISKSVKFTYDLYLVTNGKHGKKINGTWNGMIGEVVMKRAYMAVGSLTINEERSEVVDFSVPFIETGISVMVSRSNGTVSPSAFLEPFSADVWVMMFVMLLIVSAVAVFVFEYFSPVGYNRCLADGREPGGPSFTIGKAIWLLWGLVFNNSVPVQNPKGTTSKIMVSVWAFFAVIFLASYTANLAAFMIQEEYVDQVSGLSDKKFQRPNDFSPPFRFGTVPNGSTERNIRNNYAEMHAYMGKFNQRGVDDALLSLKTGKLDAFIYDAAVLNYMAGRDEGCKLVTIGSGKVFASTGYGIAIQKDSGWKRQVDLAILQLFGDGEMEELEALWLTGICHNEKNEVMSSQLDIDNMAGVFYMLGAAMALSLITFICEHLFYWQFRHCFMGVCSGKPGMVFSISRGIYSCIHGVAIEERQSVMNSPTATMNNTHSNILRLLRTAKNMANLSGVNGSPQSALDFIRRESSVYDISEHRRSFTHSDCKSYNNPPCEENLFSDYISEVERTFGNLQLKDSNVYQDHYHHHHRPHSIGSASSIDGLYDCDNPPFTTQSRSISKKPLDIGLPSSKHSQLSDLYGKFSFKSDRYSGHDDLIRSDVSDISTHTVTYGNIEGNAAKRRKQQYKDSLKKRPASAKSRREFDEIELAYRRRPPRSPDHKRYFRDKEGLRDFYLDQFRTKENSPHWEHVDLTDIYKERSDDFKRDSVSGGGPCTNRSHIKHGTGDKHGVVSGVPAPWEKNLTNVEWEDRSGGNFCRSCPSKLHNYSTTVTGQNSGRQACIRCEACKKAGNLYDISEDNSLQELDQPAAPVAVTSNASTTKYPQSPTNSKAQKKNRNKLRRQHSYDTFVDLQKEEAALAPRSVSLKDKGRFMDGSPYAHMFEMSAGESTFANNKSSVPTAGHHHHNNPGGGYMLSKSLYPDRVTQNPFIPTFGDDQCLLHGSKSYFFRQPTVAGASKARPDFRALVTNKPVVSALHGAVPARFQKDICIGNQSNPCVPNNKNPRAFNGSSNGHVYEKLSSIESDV
# assay_name: Fluo-8 Ca2+ flux assay: reversal of Ro 25-6981-mediated suppression of the Ca2+ response to co-agonist (glutamate/glycine)
# Type: cell-based
# experimental_setup: reversal of the Ro 25-6981 suppression of the Ca2+ response to co-agonist (glutamate/glycine)
Record form. Attribute: Response Recovered (%). Fill in for each entry.
Answers are plain numbers, in %.

As a guide, the following entries are already answered.
O=C(Cn1ccn2ccc(-c3ccc(Cl)c(Cl)c3)c2c1=O)N1CCC(F)C1 (stereo not shown): 58
O=C(Cn1ccc2c(c(-c3ccc(F)c(C(F)(F)F)c3)cn2CCO)c1=O)N1CCC(F)C1 (stereo not shown): 54
CC(C)(O)Cn1cc(-c2ccc(F)c(C(F)(F)F)c2)c2c(=O)n(CC(=O)N3CC(F)C(F)C3)ccc21 (stereo not shown): 13
O=C(Cn1ccc2scc(-c3ccc(F)c(Cl)c3)c2c1=O)N1CC(F)C1: 23
O=C(Cn1ncc2scc(-c3ccc(Cl)c(C(F)(F)F)c3)c2c1=O)N1CCCC1: 23
O=C(Cn1ccc2scc(-c3ccc(Cl)c(C(F)(F)F)c3)c2c1=O)N1CCC(F)C1 (stereo not shown): 107

// batch mode: one Response Recovered (%) value per listed entry
1. O=C(Cn1ccn2ccc(-c3ccc(F)c(C(F)(F)F)c3)c2c1=O)N1CCCC1
2. O=C(Cn1ccc2c(c(-c3ccc(F)c(C(F)(F)F)c3)cn2-c2ccnnc2)c1=O)N1CCC(F)C1 (stereo not shown)
3. O=C(Cn1cnc2csc(-c3ccc(Cl)cc3)c2c1=O)N1CCC(F)(F)CC1
4. N=C(NO)c1cn(CC(=O)N2CCCC2)c(=O)c2c(-c3ccc(F)c(C(F)(F)F)c3)csc12
5. O=C(Cn1cnc2c(c(-c3ccc(F)c(Cl)c3)cn2CCF)c1=O)N1CCCC1
6. Cn1cnc(-n2cc(-c3ccc(F)c(C(F)(F)F)c3)c3c(=O)n(CC(=O)N4CCC(F)C4)ccc32)n1 (stereo not shown)
7. O=C(Cn1ccn2ccc(-c3ccc(F)c(Cl)c3)c2c1=O)N1CCCC1

[77, 44, 1, 64, 40, 95, 118]

###

# target_under_test: HEK293 cells with stable expression of the GRIN1 gene and tetracycline-inducible expression of the GRIN2B gene (NMDA receptor, NR2B) (Homo sapiens, UniProt Q13224)
# assay_name: Fluo-8 Ca2+ flux assay: reversal of Ro 25-6981-mediated suppression of the Ca2+ response to co-agonist (glutamate/glycine)
# Type: cell-based
# experimental_setup: reversal of the Ro 25-6981 suppression of the Ca2+ response to co-agonist (glutamate/glycine)
Okay, here is how we bin by Response Recovered (%): LOW: < 30%; MID: ≥ 30% and < 80%; HIGH: ≥ 80%

O=C(Cn1cc(CO)c2scc(-c3ccc(F)c(Cl)c3)c2c1=O)N1CCC(F)C1 (centres unmarked): MID
CC1(F)CN(C(=O)Cn2ccn3ccc(-c4ccc(Cl)c(Cl)c4)c3c2=O)C1: HIGH
CC1CN(C(=O)Cn2ccc3scc(-c4ccc(F)c(Cl)c4)c3c2=O)C1: MID
CC1(F)CN(C(=O)Cn2ccc3scc(-c4ccc(F)c(Cl)c4)c3c2=O)C1: HIGH
O=C(Cn1ccc2c(c(-c3ccc(Cl)c(Cl)c3)cn2CC(F)(F)F)c1=O)N1CCC(F)C1 (centres unmarked): HIGH
O=C(Cn1ccc2c(c(-c3ccc(F)c(C(F)(F)F)c3)cn2C2COC2)c1=O)N1CCC(F)C1 (centres unmarked): MID
COCn1cc(-c2ccc(F)c(Cl)c2)c2c(=O)n(CC(=O)N3CC(C)(F)C3)ccc21: HIGH
O=C(Cn1cnc2ccn(-c3ccc(Cl)cc3)c2c1=O)N1CCC1: LOW

Form: Item = CCC1(F)CN(C(=O)Cn2ccc3scc(-c4ccc(F)c(Cl)c4)c3c2=O)C1 ; Class = ?
HIGH

Here is the next compound: O=C(Cn1ccc2cccc(-c3ccc(Cl)c(F)c3)c2c1=O)N1CCCC1
LOW

Here is the next compound: CC1(F)CN(C(=O)Cn2cnn3cnc(-c4ccc(F)c(Cl)c4)c3c2=O)C1
LOW

Here is the next compound: Cn1cc(-c2ccc(F)c(C(F)(F)F)c2)c2c(=O)n(CC(=O)N3CCC(F)C3)ccc21 (centres unmarked)
MID

Here is the next compound: O=C(Cn1ccc2[nH]cc(-c3ccc(Cl)c(Cl)c3)c2c1=O)N1CCCC1
MID

###

# target_under_test: HEK293 cells with stable expression of the GRIN1 gene and tetracycline-inducible expression of the GRIN2B gene (NMDA receptor, NR2B) (Homo sapiens, UniProt Q13224)
# assay_name: Fluo-8 Ca2+ flux assay: reversal of Ro 25-6981-mediated suppression of the Ca2+ response to co-agonist (glutamate/glycine)
# Type: cell-based
# experimental_setup: reversal of the Ro 25-6981 suppression of the Ca2+ response to co-agonist (glutamate/glycine)
Okay, here is how we bin by Response Recovered (%): lower band (below 30%), central band (30% to below 80%), upper band (80% or more)

Below are worked cases with known answers.
O=C(Cn1ccc2scc(-c3ccc(F)c(C(F)(F)F)c3)c2c1=O)N1C[C@@H](F)[C@@H](F)C1 [Example 28]: upper band
Cc1cc(-c2csc3ccn(CC(=O)N4CC(C)(F)C4)c(=O)c23)cnc1F [Example 87]: lower band
O=C(Cn1ccn2ncc(-c3ccc(F)c(C(F)(F)F)c3)c2c1=O)N1CCCC1 [Example 323]: central band
O=C(Cn1ccn2c(C3CC3)nc(-c3ccc(F)c(C(F)(F)F)c3)c2c1=O)N1CCC(F)C1 (centres unmarked) [Example 434]: central band
O=C(Cn1cc(/C=N/O)c2scc(-c3ccc(F)c(C(F)(F)F)c3)c2c1=O)N1CCC(F)C1 (centres unmarked) [Example 134]: upper band

Form: Item = O=C(Cn1ccc2scc(-c3ccc(F)c(Cl)c3)c2c1=O)N1CCC1 [Example 46] ; Class = ?
lower band

Here is the next compound: CCC1(F)CN(C(=O)Cn2ccn3ccc(-c4cnc(Cl)c(Cl)c4)c3c2=O)C1 [Example 405]
central band

Here is the next compound: CCC1(F)CN(C(=O)Cn2ccc3c(c(-c4cnc(Cl)c(Cl)c4)cn3C3CC3)c2=O)C1 [Example 294]
upper band

Here is the next compound: O=C(Cn1ccn2ncc(-c3ccc(F)c(Cl)c3)c2c1=O)N1CC(F)(F)C1 [Example 328]
lower band

Here is the next compound: O=C(Cn1ccn2ncc(-c3ccc(F)c(C(F)(F)F)c3)c2c1=O)N1CCC(F)C1 (centres unmarked) [Example 321]
central band

Here is the next compound: COC1(C)CN(C(=O)Cn2ccc3scc(-c4ccc(F)c(Cl)c4)c3c2=O)C1 [Example 62]
lower band

Measured values drawn from patent US12162890B2 for this set.
